target: Suppressor of tumorigenicity 14 protein (Homo sapiens); assay: Inhibition of recombinant human N-terminal met-His6-tagged matriptase catalytic domain (Gly596 to Val855 residues) expressed in Escherichia coli using Boc-QAR-AMC as substrate preincubated for 30 mins followed by substrate addition by fluorescence based assay
Sequence (Q9Y5Y6 whole entry, the tested form may be a part): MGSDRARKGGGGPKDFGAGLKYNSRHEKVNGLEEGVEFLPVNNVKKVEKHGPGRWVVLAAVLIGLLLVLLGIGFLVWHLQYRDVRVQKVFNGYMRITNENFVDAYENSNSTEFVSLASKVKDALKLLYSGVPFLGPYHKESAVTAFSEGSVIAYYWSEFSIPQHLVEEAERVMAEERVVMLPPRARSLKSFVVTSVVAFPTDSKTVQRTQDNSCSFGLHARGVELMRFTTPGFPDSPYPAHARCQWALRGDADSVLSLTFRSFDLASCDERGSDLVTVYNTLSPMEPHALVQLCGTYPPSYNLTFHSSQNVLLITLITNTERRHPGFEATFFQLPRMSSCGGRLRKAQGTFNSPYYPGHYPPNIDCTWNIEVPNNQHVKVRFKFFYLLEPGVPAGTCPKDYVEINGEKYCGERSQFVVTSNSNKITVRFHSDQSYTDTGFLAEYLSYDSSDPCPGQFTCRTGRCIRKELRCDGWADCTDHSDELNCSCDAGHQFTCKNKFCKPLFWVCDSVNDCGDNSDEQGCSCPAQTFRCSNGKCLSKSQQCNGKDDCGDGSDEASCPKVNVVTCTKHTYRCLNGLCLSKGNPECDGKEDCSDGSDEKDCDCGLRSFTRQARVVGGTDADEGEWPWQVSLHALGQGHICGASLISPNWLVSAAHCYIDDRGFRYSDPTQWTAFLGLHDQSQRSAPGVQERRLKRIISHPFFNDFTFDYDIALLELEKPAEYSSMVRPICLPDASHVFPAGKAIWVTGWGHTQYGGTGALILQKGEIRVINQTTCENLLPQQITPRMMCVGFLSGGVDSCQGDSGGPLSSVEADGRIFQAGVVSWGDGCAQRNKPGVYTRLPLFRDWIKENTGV
Numbered stars: 1 amine (or outer) side, 2 acyl side, 3 side chain; on linkers, the order of the positions; unused ones are H or OH. Square brackets hold non-standard residues; d marks the D form. Peptide text beside a SMILES is read from it. X1 = N=C(N)NCCC[C@H](N[*:1])C(=O)c1nc2ccc(C(=O)[*:2])cc2s1

molecule: CC(=O)N[C@H]1CCCCNC(=O)C[C@@H](C(=O)N[C@@H](CCCNC(=N)N)C(=O)c2nc3ccccc3s2)NC(=O)[C@H](CC(C)C)NC1=O
target_entity: Suppressor of tumorigenicity 14 protein (Homo sapiens)
IC50: 20 nM
--
molecule: CC(=O)N[C@@H](CO)C(=O)N[C@@H](CCCCN)C(=O)N[C@@H](CC(C)C)C(=O)N[C@@H](CCCNC(=N)N)C(=O)c1nc2ccc(C(=O)N[C@H](C(N)=O)C(C)C)cc2s1 (Ac-SKL[X1]V-NH2)
target_entity: Suppressor of tumorigenicity 14 protein (Homo sapiens)
IC50: 21 nM
--
molecule: CC(=O)N[C@H]1CC(=O)NCCCC[C@@H](C(=O)N[C@@H](CCCNC(=N)N)C(=O)c2nc3ccccc3s2)NC(=O)[C@H](CC(C)C)NC1=O
target_entity: Suppressor of tumorigenicity 14 protein (Homo sapiens)
IC50: 2.2 nM
--
molecule: CC(=O)N[C@H]1CC(=O)NCCCC[C@@H](C(=O)N[C@@H](CCCNC(=N)N)C(=O)c2nc3ccccc3s2)NC(=O)[C@H]([C@@H](C)O)NC1=O
target_entity: Suppressor of tumorigenicity 14 protein (Homo sapiens)
IC50: 3.7 nM

----------
This section presents compounds with their documented pIC50 values.
biological target: Serine protease hepsin (Homo sapiens); assay: Inhibition of recombinant human C-terminal 10-His tagged hepsin (Arg45 to Leu417) expressed in mouse myeloma cells using Boc-QAR-AMC as substrate preincubated for 30 mins followed by substrate addition by fluorescence based assay
Sequence (P05981 1-162 limits assumed): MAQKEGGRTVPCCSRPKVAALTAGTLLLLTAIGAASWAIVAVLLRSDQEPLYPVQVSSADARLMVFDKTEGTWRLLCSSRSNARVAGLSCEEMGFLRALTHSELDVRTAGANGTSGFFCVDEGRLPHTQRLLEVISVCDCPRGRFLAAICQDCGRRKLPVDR
Sequence (P05981 163-417 limits assumed): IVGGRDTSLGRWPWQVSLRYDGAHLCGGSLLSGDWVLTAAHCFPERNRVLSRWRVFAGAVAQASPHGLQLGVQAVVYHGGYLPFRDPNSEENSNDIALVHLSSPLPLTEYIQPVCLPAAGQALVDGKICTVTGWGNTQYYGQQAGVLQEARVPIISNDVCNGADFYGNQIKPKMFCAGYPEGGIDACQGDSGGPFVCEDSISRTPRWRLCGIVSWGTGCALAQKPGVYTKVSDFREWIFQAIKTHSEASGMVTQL
pIC50: −log10 of the molar value. Numbered stars: 1 amine (or outer) side, 2 acyl side, 3 side chain; on linkers, the order of the positions; unused ones are H or OH. Square brackets hold non-standard residues; d marks the D form. Peptide text beside a SMILES is read from it. X1 = N=C(N)NCCC[C@H](N[*:1])C(=O)c1nc2ccc(C(=O)[*:2])cc2s1

compound: CC(=O)N[C@H]1CC(=O)NCCCC[C@@H](C(=O)N[C@@H](CCCNC(=N)N)C(=O)c2nc3ccccc3s2)NC(=O)[C@H]([C@@H](C)O)NC1=O
target_entity: Serine protease hepsin (Homo sapiens)
pIC50: 8.24
//
compound: CC(=O)N[C@H]1CC(=O)NCCCC[C@@H](C(=O)N[C@@H](CCCNC(=N)N)C(=O)c2nc3ccccc3s2)NC(=O)[C@H](Cc2ccccc2)NC1=O
target_entity: Serine protease hepsin (Homo sapiens)
pIC50: 7.77
//
compound: CC(=O)N[C@@H](CO)C(=O)N[C@@H](CCCCN)C(=O)N[C@@H](CC(C)C)C(=O)N[C@@H](CCCNC(=N)N)C(=O)c1nc2ccc(C(=O)N[C@H](C(N)=O)C(C)C)cc2s1 (Ac-SKL[X1]V-NH2)
target_entity: Serine protease hepsin (Homo sapiens)
pIC50: 9.42
//
compound: CC(=O)N[C@H]1CC(=O)NCCCC[C@@H](C(=O)N[C@@H](CCCNC(=N)N)C(=O)c2nc3ccccc3s2)NC(=O)[C@H](CC(C)C)NC1=O
target_entity: Serine protease hepsin (Homo sapiens)
pIC50: 7.96
